- assay_target: T1, TRCW5 antigen (CD3δε-Fc-Avi) (biotinylated (site not stated))
- T1 construct: also called recombinant CD3
- T1 sequence (chain, as listed by the source mutant limits assumed): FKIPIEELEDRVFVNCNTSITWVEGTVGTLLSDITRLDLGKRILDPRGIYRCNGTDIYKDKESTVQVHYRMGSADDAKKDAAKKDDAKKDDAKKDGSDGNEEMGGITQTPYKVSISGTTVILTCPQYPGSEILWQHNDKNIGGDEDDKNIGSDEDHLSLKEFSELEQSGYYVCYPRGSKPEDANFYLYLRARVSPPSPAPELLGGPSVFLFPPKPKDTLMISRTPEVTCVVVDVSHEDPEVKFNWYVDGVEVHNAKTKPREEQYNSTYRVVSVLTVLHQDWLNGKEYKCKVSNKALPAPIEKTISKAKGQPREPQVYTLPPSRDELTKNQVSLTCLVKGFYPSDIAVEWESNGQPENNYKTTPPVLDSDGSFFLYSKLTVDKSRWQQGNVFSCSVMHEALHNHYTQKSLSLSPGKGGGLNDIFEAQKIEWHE
- protocol_text: ELISA after heat
property_label: % Retained 65° C. (%)
Report as a plain number; the unit % is understood.

Exercise: Can you share its % Retained 65° C.? I mean this binder: CD3B2059 (scFv) scFv: QVQLVQSGAEVKKPGSSVKVSCKASGYTFTRSTMHWVKQAPGQGLEWIGYINPSSAYTNYAQKFQGRVTLTADKSTSTAYMELSSLRSEDTAVYYCASPQVHYDYNGFPYWGQGTLVTVSSGGSEGKSSGSGSESKSTGGSEIVLTQSPATLSASPGERVTLSCSASSSVSYMNWYQQKPGQSPRRLIYDSSKLASGVPARFSGSGSGRDYTLTISSLEPEDFAVYYCQQWSRNPPTFGGGTKVEIK
Key: 13

Exercise: What do you get for CD3B2075 (scFv) scFv: QVQLVQSGAEVKKPGSSVKVSCKASGYTFTRSTMHWVRQAPGQGLEWIGYINPSSAYTNYAQKFQGRVTLTADKSTSTAYMELSSLRSEDTAVYYCASPQVHYDYNGFPYWGQGTLVTVSSGGSEGKSSGSGSESKSTGGSEIVLTQSPATLSASPGERVTLSCSASSSVSYMNWYQQKPGQSPRRLIYDSSKLASGVPARFSGSGSGRDYTLTISSLEPEDFAVYYCQQWSRNPPTFGGGTKVEIK ?
Key: 6

Exercise: What do you get for CD3B2031 (scFv) scFv: QVQLVQSGAEVKKPGSSVKVSCKASGYTFTRSTMHWVKQAPGQGLEWMGYINPSSAYTNYNQKFQGRVTLTADKSTSTAYMELSSLRSEDTAVYYCASPQVHYDYNGFPYWGQGTLVTVSSGGSEGKSSGSGSESKSTGGSEIVLTQSPATLSASPGERVTLSCSASSSVSYMNWYQQKPGTAPRRWIYDSSKLASGVPARFSGSGSGRDYTLTISSLEPEDFAVYYCQQWSRNPPTFGGGTKVEIK ?
Key: 36

Exercise: What do you get for CD3B2061 (scFv) scFv: QVQLVQSGAEVKKPGSSVKVSCKASGYTFTRSTMHWVKQAPGQGLEWIGYINPSSAYTNYAQKFQGRVTLTADKSTSTAYMELSSLRSEDTAVYYCASPQVHYDYNGFPYWGQGTLVTVSSGGSEGKSSGSGSESKSTGGSEIVLTQSPATLSASPGERVTLSCSASSSVSYMNWYQQKPGTAPRRWIYDSSKLASGVPARFSGSGSGRDYTLTISSLEPEDFAVYYCQQWSRNPPTFGGGTKVEIK ?
Key: 9

Exercise: What do you get for CD3B2063 (scFv) scFv: QVQLVQSGAEVKKPGSSVKVSCKASGYTFTRSTMHWVKQAPGQGLEWIGYINPSSAYTNYAQKFQGRVTLTADKSTSTAYMELSSLRSEDTAVYYCASPQVHYDYNGFPYWGQGTLVTVSSGGSEGKSSGSGSESKSTGGSEIVLTQSPATLSASPGERVTLSCSASSSVSYMNWYQQKPGTAPRRLIYDSSKLASGVPARFSGSGSGRDYTLTISSLEPEDFAVYYCQQWSRNPPTFGGGTKVEIK ?
Key: 11

Exercise: What do you get for CD3B2085 (scFv) scFv: QVQLVQSGAEVKKPGSSVKVSCKASGYTFTRSTMHWVRQAPGQGLEWMGYINPSSAYTNYAQKFQGRVTLTADKSTSTAYMELSSLRSEDTAVYYCASPQVHYDYNGFPYWGQGTLVTVSSGGSEGKSSGSGSESKSTGGSEIVLTQSPATLSASPGERVTLSCSASSSVSYMNWYQQKPGTAPRRWIYDSSKLASGVPARFSGSGSGRDYTLTISSLEPEDFAVYYCQQWSRNPPTFGGGTKVEIK ?
Key: 18

Exercise: What do you get for CD3B2032 (scFv) scFv: QVQLVQSGAEVKKPGSSVKVSCKASGYTFTRSTMHWVKQAPGQGLEWMGYINPSSAYTNYNQKFQGRVTLTADKSTSTAYMELSSLRSEDTAVYYCASPQVHYDYNGFPYWGQGTLVTVSSGGSEGKSSGSGSESKSTGGSEIVLTQSPATLSASPGERVTLSCSASSSVSYMNWYQQKPGTSPRRLIYDSSKLASGVPARFSGSGSGRDYTLTISSLEPEDFAVYYCQQWSRNPPTFGGGTKVEIK ?
Key: 20

Exercise: What do you get for CD3B2044 (scFv) scFv: QVQLVQSGAEVKKPGSSVKVSCKASGYTFTRSTMHWVRQAPGQGLEWIGYINPSSAYTNYNQKFQGRVTLTADKSTSTAYMELSSLRSEDTAVYYCASPQVHYDYNGFPYWGQGTLVTVSSGGSEGKSSGSGSESKSTGGSEIVLTQSPATLSASPGERVTLSCSASSSVSYMNWYQQKPGQSPRRWIYDSSKLASGVPARFSGSGSGRDYTLTISSLEPEDFAVYYCQQWSRNPPTFGGGTKVEIK ?
Key: 14

Exercise: What do you get for CD3B2083 (scFv) scFv: QVQLVQSGAEVKKPGSSVKVSCKASGYTFTRSTMHWVRQAPGQGLEWMGYINPSSAYTNYAQKFQGRVTLTADKSTSTAYMELSSLRSEDTAVYYCASPQVHYDYNGFPYWGQGTLVTVSSGGSEGKSSGSGSESKSTGGSEIVLTQSPATLSASPGERVTLSCSASSSVSYMNWYQQKPGQSPRRLIYDSSKLASGVPARFSGSGSGRDYTLTISSLEPEDFAVYYCQQWSRNPPTFGGGTKVEIK ?
Key: 4

Exercise: What do you get for CD3B2078 (scFv) scFv: QVQLVQSGAEVKKPGSSVKVSCKASGYTFTRSTMHWVRQAPGQGLEWIGYINPSSAYTNYAQKFQGRVTLTADKSTSTAYMELSSLRSEDTAVYYCASPQVHYDYNGFPYWGQGTLVTVSSGGSEGKSSGSGSESKSTGGSEIVLTQSPATLSASPGERVTLSCSASSSVSYMNWYQQKPGTSPRRLIYDSSKLASGVPARFSGSGSGRDYTLTISSLEPEDFAVYYCQQWSRNPPTFGGGTKVEIK ?
Key: 2
